# Tested On: AgBem1-D1
# Procedure Details: SPOT peptide array binding signal intensity (averaged, normalized) (arbitrary units (background-subtracted, floor 0; scale differs between SH3 domains)); higher = stronger binding of the SH3 domain to the peptide
Endpoint Label: SPOT peptide array binding signal intensity

1. KIRRSSLMIPNPQQF: 234
2. RRARRQMGIPTISQV: 252
3. IRMPSNPALPKKLLN: 431
4. NRPAIRIPSLKKPAL: 54.5
5. TKRKRPARLIFYDSK: 82
6. LLRRTIPKRPFYHVL: 44.5
